procedure-details: Toxicokinetics in female rats (4-day oral gavage study, Day 1)
Assay type: in vivo
applied-conditions: Wistar Han (RccHan:WIST); female rat plasma; 300 mg/kg/day oral gavage; Day 1
measure: Cmax (µg/mL)
Kindly answer with a numeric value in µg/mL, unit omitted.

CC(C)(CCCCc1ccc(CCCCC(C)(C)C(=O)O)cc1)C(=O)O; 787

// moving on: another record for Cmax
Ask: Look up Cmax of CC(C)(CCCCc1cccc(CCCCC(C)(C)C(=O)O)c1)C(=O)O and report it.
Reply: 406

====

procedure-details: Single and repeat dose plasma and tissue pharmacokinetics in male C57BL/6 mice
Assay type: in vivo, mouse
applied-conditions: male, C57BL/6, mouse, plasma, po, 20 mg/kg, mouse plasma; QD × 1; value in parentheses: timepoint 0.25 h samples after reanalysis
Experimental: Materials and methods. The study involved two arms: a single dose pharmacokinetic study and a 4-day repeated-dose pharmacokinetic study. For each arm, 56 inbred male C57BL/6 mice, aged at 6-7 week, were included. All animals were purchased from Charles River Lab (CRL, MA). […] All three samples from each mouse were analyzed for either Compound I-1 or Compound I-32 contents by Integrated Analytical Solutions (Berkeley, CA) and the results were used for the generation of the pharmacokinetic graphs. […]
measure: Cmax (µg/mL)
Kindly answer with a numeric value in µg/mL, unit omitted.

Ask: Look up Cmax of CC(C)(CCCCc1ccc(CCCCC(C)(C)C(=O)O)cc1)C(=O)O and report it.
Reply: 90
